Molecular target: Caspase-8 (Homo sapiens)
Experiment: Inhibitory concentration against caspase-8
metric: IC50

CC(C)C[C@H](NC(=O)Cc1ccc(-c2ccccc2)cc1)C(=O)N[C@H]1CC(=O)OC1O (stereo partly drawn)	> 10 µM
CC(C)C[C@H](NC(=O)CCCc1ccc2ccccc2c1)C(=O)N[C@H]1CC(=O)OC1O (stereo partly drawn)	> 50 µM

Exercise: Which IC50 is reported for this molecule? CC(C)C[C@H](NC(=O)COc1ccc2ccccc2c1)C(=O)N[C@H]1CC(=O)OC1O (stereo partly drawn)
Key: > 10 µM

---

Readings of IC50 for the listed molecules
Biological target: Caspase-3 (Homo sapiens)
Assay: Inhibitory concentration against caspase-3
All answers are understood in µM, so give the number only.

CC(C)C[C@H](NC(=O)CCOc1cccc2ccccc12)C(=O)N[C@H]1CC(=O)OC1O (some centres undefined)	0.059
CC(C)[C@@H](NC(=O)OCc1ccccc1)C(=O)C[C@H]1CC(=O)OC1O (some centres undefined)	1.75
CC(C)C[C@H](NC(=O)C(C)Oc1cccc2cc(Br)ccc12)C(=O)N[C@H]1CC(=O)OC1O (some centres undefined)	4.81

Exercise: Which IC50 is reported for this molecule? CC(C)C[C@H](NC(=O)COc1ccccc1Cc1ccccc1)C(=O)N[C@H]1CC(=O)OC1O (some centres undefined)
Key: 0.49

---

Target: Caspase-3 (Homo sapiens, UniProt P42574)
Sequence (P42574 whole entry): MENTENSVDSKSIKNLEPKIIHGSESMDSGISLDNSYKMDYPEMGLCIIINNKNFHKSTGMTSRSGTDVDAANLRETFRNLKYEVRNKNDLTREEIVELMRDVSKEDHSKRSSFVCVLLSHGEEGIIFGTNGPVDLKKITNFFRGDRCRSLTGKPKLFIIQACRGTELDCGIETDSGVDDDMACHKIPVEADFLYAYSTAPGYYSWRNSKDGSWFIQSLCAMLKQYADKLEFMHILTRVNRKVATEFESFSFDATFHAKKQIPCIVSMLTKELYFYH
Assay: Inhibitory concentration against caspase-3
IC50 vs 400 nM: less than gives class 1; not less than gives class 0.

Example results:
CC(C)C[C@H](NC(=O)CCOc1ccc2ccccc2c1)C(=O)N[C@H]1CC(=O)OC1O (stereo partly specified)	class 0
CC(C)C[C@H](NC(=O)CCSc1ccc2ccccc2c1)C(=O)N[C@H]1CC(=O)OC1O (stereo partly specified)	class 0
CC(C)C[C@H](NC(=O)CC(=O)c1ccc2ccccc2c1)C(=O)N[C@H]1CC(=O)OC1O (stereo partly specified)	class 0
CC(C)C[C@H](NC(=O)Cc1ccc2ccccc2c1)C(=O)N[C@H]1CC(=O)OC1O (stereo partly specified)	class 0
CC(C)C[C@H](NC(=O)COc1cccc2ccccc12)C(=O)N[C@H]1CC(=O)OC1O (stereo partly specified)	class 1

Now consider a different compound.
Exercise: IC50 under 400 nM? Item: CC(C)C[C@H](NC(=O)COc1ccc2ccccc2c1)C(=O)N[C@H]1CC(=O)OC1O (stereo partly specified)
Key: class 0

---

Molecular target: Caspase-8 (Homo sapiens, UniProt Q14790)
Sequence (Q14790 217-374 limits assumed): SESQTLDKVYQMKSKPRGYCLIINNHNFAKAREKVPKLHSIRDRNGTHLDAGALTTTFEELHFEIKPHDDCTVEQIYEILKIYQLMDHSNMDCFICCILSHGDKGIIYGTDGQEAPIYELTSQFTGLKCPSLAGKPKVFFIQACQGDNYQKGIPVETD
Sequence (Q14790 385-479 limits assumed): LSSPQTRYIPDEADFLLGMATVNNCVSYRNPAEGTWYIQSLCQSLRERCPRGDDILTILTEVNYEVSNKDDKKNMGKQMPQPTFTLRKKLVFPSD
Assay: Inhibitory concentration against caspase-8
pIC50: −log10 of the molar value.
Decide using pIC50: a value greater than or equal to 5 is fulfilled, a smaller one is not fulfilled.

CC(C)C[C@H](NC(=O)CC(=O)c1ccc2ccccc2c1)C(=O)N[C@H]1CC(=O)OC1O (some centres not stated)	fulfilled
CC(C)C[C@H](NC(=O)COc1nccc2ccccc12)C(=O)N[C@H]1CC(=O)OC1O (some centres not stated)	not fulfilled
CC(C)C[C@H](NC(=O)COc1ccccc1C1CCCC1)C(=O)N[C@H]1CC(=O)OC1O (some centres not stated)	fulfilled
CC(C)C[C@H](NC(=O)COc1ccnc2ccccc12)C(=O)N[C@H]1CC(=O)OC1O (some centres not stated)	not fulfilled

Now consider a different compound.
Exercise: In plain terms: is recorded pIC50 at least 5 for CC(C)C[C@H](NC(=O)C(C)Oc1cccc2cc(Br)ccc12)C(=O)N[C@H]1CC(=O)OC1O (some centres not stated) ?
Key: not fulfilled

---

Target: UniProt P55210
Sequence (P55210 24-198 limits assumed): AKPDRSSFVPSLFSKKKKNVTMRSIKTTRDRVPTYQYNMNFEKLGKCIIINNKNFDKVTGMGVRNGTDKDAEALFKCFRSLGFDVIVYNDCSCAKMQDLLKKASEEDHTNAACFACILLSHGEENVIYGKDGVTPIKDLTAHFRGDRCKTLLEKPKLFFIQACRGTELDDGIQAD
Sequence (P55210 207-303 limits assumed): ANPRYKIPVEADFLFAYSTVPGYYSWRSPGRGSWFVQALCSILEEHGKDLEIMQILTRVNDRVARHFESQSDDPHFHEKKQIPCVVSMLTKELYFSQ
Assay: Inhibitory concentration against caspase-7
metric: IC50

CC(C)C[C@H](NC(=O)c1ccc2ccccc2c1)C(=O)N[C@H]1CC(=O)OC1O (stereo partly drawn)	> 10 µM
CC(C)C[C@H](NC(=O)COc1ccccc1)C(=O)N[C@H]1CC(=O)OC1O (stereo partly drawn)	> 10 µM

Exercise: Which IC50 is reported for this compound? CC(C)C[C@H](Nc1ccccc1)C(=O)N[C@H]1CC(=O)OC1O (stereo partly drawn)
Key: > 10 µM

---

Target: Caspase-3 (Homo sapiens, UniProt P42574)
Sequence (P42574 whole entry): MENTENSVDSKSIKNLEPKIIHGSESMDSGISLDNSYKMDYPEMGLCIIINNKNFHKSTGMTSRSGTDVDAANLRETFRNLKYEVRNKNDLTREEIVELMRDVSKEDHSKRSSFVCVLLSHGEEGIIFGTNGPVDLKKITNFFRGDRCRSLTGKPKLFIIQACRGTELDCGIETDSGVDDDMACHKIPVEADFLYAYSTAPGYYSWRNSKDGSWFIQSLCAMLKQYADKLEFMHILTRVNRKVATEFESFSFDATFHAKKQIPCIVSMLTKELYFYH
Experiment: Inhibitory concentration against caspase-3
pIC50: −log10 of the molar value.
Decide using pIC50: a value greater than or equal to 6 is Criterion met, a smaller one is Criterion not met.

CC(C)C[C@H](NC(=O)COc1ccc2c(c1)CCCC2)C(=O)N[C@H]1CC(=O)OC1O (stereo not given in full)	Criterion met
CC(C)C[C@H](NC(=O)Cc1ccc(-c2ccccc2)cc1)C(=O)N[C@H]1CC(=O)OC1O (stereo not given in full)	Criterion not met
CC(C)C[C@H](NC(=O)COc1ccc(C2CCCC2)cc1)C(=O)N[C@H]1CC(=O)OC1O (stereo not given in full)	Criterion met
CC(C)C[C@H](NC(=O)c1ccc2ccccc2c1)C(=O)N[C@H]1CC(=O)OC1O (stereo not given in full)	Criterion not met

Now consider a different molecule.
Exercise: In plain terms: is recorded pIC50 at least 6 for Cc1ccc2ccccc2c1OCC(=O)N[C@@H](CC(C)C)C(=O)N[C@H]1CC(=O)OC1O (stereo not given in full) ?
Key: Criterion met
